Values from patent US20220073643A1

# MEASUREMENT TARGET: human Claudin18.2 (human)
# EXPERIMENT SUMMARY: cell-based or functional assay
OBSERVATION TYPE: CDC EC50 (µg/mL)
Reply numerically in µg/mL, unit not repeated.

Problem: Recorded CDC EC50 of 242F5H2 (antibody, V domains shown) VH: EVMLVESGGGLVKPGGSLKLSCAASGFTFSSYTVSWVRQTPEKRLEWVATSIVGSTYTYFPDSVKGRFTISRDFAKNTLFLQMSSLRSEDTAMYYCSRLGRGNAMDYWGQGTSVSVSS VL: DIVMTQSPSSLTVTAGEKVTLNCRSSQSLLNSGNQKNYLTWYQQKPGQPPKLLIYWASTRESGVPDRFTGSGSGTDFTLTISSVQADDLAVYYCQNGYSYPFTFGSGTKLEIK , please.
Result: 0.944

Problem: Recorded CDC EC50 of 277F1F8 (antibody, V domains shown) VH: QAYLQQSGPELVRSGASVKMSCKASGYTFTSHNMHWVKQTPGQGLEWIGYINPGNGGNNYNQKFKGKATLTADTSSSTAYMQISSLTSEDSAVYFCARDYYGNSFAFWGQGTLVTVSA VL: DIVMTQSPSSLTETAGEKVSMSCKSSQSLLNSGNQKNYLTWYQQKPGQPPKLLIYWASTRESGVPDRFTGSGSGTDFTLTISSVQAEDLAVYYCQNDYRFPFTFGAGTKLELK , please.
Result: 1.54

Problem: Recorded CDC EC50 of 420D5H5 (antibody, V domains shown) VH: DVQLVESGGGLVQPGGSRKLSCAASGFTLSGFGMHWIRQTPEKGLEWVAYISSGSRPIYYVDTVEGRFTISRDNPKNTLFLQMTSLRSEDTAMYFCARFYYGNSFDHWGQGTLVTVSS VL: DIVMTQSPSFLTVTAGEKVTMSCKSSQSLLNSGNQKNYLTWYQQKPGQPPKLLIYWASTRESGVPDRFTGSGSGTDFTLTIRGVQAEDLALYYCQNAYSFPLTFGAGTKLELK , please.
Result: 2.2

Further cases:
Problem: Recorded CDC EC50 of 240D6F5 (antibody, V domains shown) VH: QAYLQQSGAELVRSGASVKMSCKASGYTFTSHNMHWVKQTPGQGLEWIGYIYPGNGGTNYNQKFKGKATLTADPSSSTAYMQINSLTSEDSAVYFCTRDYYGNSFAYWGQGTLVTVSA VL: DIVMTQSPSSLTEKAGERVSMSCKSSQSLFNSGNQKNYLTWYQQKPGQPPKLLIYWASTRESGVPDRFTGSGSGTDFTLTISSVQAEDLAVYYCQNDYRYPFTFGAGTKLELK , please.
Result: 1.17

Problem: Recorded CDC EC50 of 266B11F7 (antibody, V domains shown) VH: QVQMKESGPGLVAPSQSLSITCTVSGFSLTTYGVTWVRQPPGKGLEWLGVIWGDGSTNYHSALTSRLRISKDKSKSQVFLKLSSLQTDDTATYYCAKPGRGNALDYWGQGTSVTVSS VL: DIVMTQSPSSLTVTAGEKVTMRCKSSQSLLNSGNQKNYLTWYQQKPGQPPKLLVYWASTRESGVPDRFTGSGSGTDFTLTVSSVQAEDLAVYYCQNDYIFPLTFGAGTKLELK , please.
Result: 1.77
